Attribution: ChEMBL document CHEMBL5136958

# experimentalDetails: Clearance in Sprague-Dawley rat model of bleomycin-induced pulmonary fibrosis at 1 mg/kg, iv by LC-MS/MS analysis
# Assay type: ADME, organism-based
# assayConditions: in vivo
valueType: clearance (mL/min/kg)
Just the number please, in mL/min/kg, no unit attached.

Suppose we examine the molecule `Cc1cc(=O)n(-c2ccc(N3CCOCC3)c(F)c2)c(C)n1` ; what clearance value has been reported?
1.67

----------
# experimentalDetails: Half life in Sprague-Dawley rat model of bleomycin-induced pulmonary fibrosis at 1 mg/kg, iv by LC-MS/MS analysis
# Type: ADME, organism-based
# assayConditions: in vivo
valueType: half-life (h)
Just the number please, in h, no unit attached.

Suppose we examine the compound `Cc1cc(=O)n(-c2ccc(N3CCOCC3)c(F)c2)c(C)n1` ; what half-life value has been reported?
4.3
